measuredOn: TAK1-TAB1 (Homo sapiens (Human), UniProt O43318)
Sequence (O43318 other isoform, or with tags, fused parts or gaps): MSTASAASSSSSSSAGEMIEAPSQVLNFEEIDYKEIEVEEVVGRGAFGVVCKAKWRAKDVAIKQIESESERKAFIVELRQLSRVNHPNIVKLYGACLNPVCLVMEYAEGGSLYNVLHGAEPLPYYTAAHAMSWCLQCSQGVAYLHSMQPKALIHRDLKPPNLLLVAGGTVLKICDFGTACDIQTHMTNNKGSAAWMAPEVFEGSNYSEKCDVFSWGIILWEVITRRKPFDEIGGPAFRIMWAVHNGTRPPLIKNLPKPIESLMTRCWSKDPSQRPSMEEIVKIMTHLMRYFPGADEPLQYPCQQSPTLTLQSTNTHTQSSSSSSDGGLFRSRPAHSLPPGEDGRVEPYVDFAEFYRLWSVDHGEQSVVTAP
observedProperty: log10 IC50 (log10 of the value in nM)
Values reflect log10 of reported IC50 (nM).

Consider the worked cases shown below.
compound	observedProperty	endpointValue
NC(=O)/C=C/c1c[nH]c2ncnc(OCc3ccccc3)c12	log10 IC50	2.86
CC(C)COc1ncnc2[nH]cc(/C=C\C#N)c12	log10 IC50	2.23

Batch request: log10 IC50 per item, same order as input.
1. CCC(C)Oc1ncnc2[nH]cc(/C=C/C(N)=O)c12 (stereo not shown)
2. NC(=O)/C=C/c1c[nH]c2ncnc(Oc3ccccc3)c12
3. CC(C)COc1ncnc2[nH]cc(/C=C/C#N)c12
4. CC(C)COc1ncnc2[nH]cc(/C=C(\Cl)C(N)=O)c12
5. NC(=O)/C=C/c1c[nH]c2ncnc(OCC(F)(F)F)c12

1: 0.63; 2: 2.23; 3: 2.32; 4: 2.56; 5: 1.52

Batch request: log10 IC50 per item, same order as input.
1. CC(C)COc1ncnc2[nH]cc(C(=O)CCl)c12
2. CC(C)COc1ncnc2[nH]cc(/C=C/C(N)=O)c12
3. COC(=O)/C=C/c1c[nH]c2ncnc(OCc3ccccc3)c12

1. 2.45
2. 0.49
3. 2.54

* * *

For each record, write down the corresponding pIC50.
Test system: A549 cells
protocolDetails: IL-1β stimulated IL-6 Production in A549 cells
Format: cell-based
conditionsUsed: Homo sapiens, 1 ng/ml rhIL1β, 18 hrs, read-out: IL-6 Production IC
Answers are plain numbers, as −log10 of the molar value.

Consider the worked cases shown below.
compound	pIC50
CCNC(=O)/C=C/c1c[nH]c2ncnc(OCC(C)C)c12	7.06
CC(C)COc1ncnc2[nH]cc(/C=C/C(=O)N(C)C)c12	6.72
CCCOc1ncnc2[nH]cc(/C=C/C(N)=O)c12	6.74
NC(=O)/C=C/c1c[nH]c2ncnc(OCc3cccc(F)c3)c12	7.37

Batch request: pIC50 per item, same order as input.
1. CC(C)COc1ncnc2[nH]cc(/C=C/C(=O)NC[C@H](C)O)c12
2. CCC(C)Oc1ncnc2[nH]cc(/C=C/C(N)=O)c12 (stereo not drawn)
3. CNC(=O)/C=C/c1c[nH]c2ncnc(OCC(C)C)c12
4. COC(=O)/C=C/c1c[nH]c2ncnc(OCc3ccccc3)c12
5. NC(=O)/C=C/c1c[nH]c2ncnc(OC3CCC(F)(F)CC3)c12

1. 5.47
2. 6.72
3. 7.37
4. 6.10
5. 6.74

* * *

measuredOn: TAK1-TAB1 (Homo sapiens (Human), UniProt O43318)
For each record, write down the corresponding IC50.
Answers are plain numbers, in nM.

Consider the worked cases shown below.
molecule	measuredOn	IC50 (nM)
CC(C)(C)Oc1ncnc2[nH]cc(/C=C/C(N)=O)c12 [Example 195]	TAK1-TAB1 (Homo sapiens (Human), UniProt O43318)	13
C=C(C#N)c1c[nH]c2ncnc(OCC(C)C)c12 [Example 197]	TAK1-TAB1 (Homo sapiens (Human), UniProt O43318)	750
CNC(=O)/C=C/c1c[nH]c2ncnc(OCC(C)C)c12 [Example 39]	TAK1-TAB1 (Homo sapiens (Human), UniProt O43318)	41
CC(C)Oc1ncnc2[nH]cc(/C=C/C(N)=O)c12 [Example 188]	TAK1-TAB1 (Homo sapiens (Human), UniProt O43318)	4.4

Bench note: what IC50 did CC(C)(C)COc1ncnc2[nH]cc(/C=C/C(N)=O)c12 [Example 192] show?
5.2

* * *

System: A549 cells
protocolDetails: IL-1β stimulated IL-6 Production in A549 cells
Type: cell-based
conditionsUsed: Homo sapiens, 1 ng/ml rhIL1β, 18 hrs, read-out: IL-6 Production IC
pIC50: −log10 of the molar value.
Outcome: YES for pIC50 of at least 6; NO for anything lower.

smilesRepresentation	measuredOn	labelClass
CC(C)Oc1ncnc2[nH]cc(/C=C/C(N)=O)c12	A549 cells	YES
CC(C)COc1ncnc2[nH]cc(/C=C/C(=O)NCC3CC3)c12	A549 cells	YES
CC(C)(C)COc1ncnc2[nH]cc(/C=C/C(N)=O)c12	A549 cells	YES
CC(C)COc1ncnc2[nH]cc(/C=C/C(N)=O)c12	A549 cells	YES

Hi, just wondering whether NC(=O)/C=C/c1c[nH]c2ncnc(OCC(F)(F)F)c12 shows pIC50 of 6 or higher.
YES

Hi, just wondering whether CC(C)COc1ncnc2[nH]cc(/C=C/C(=O)NC3CC3)c12 shows pIC50 of 6 or higher.
YES

Hi, just wondering whether N#C/C=C/c1c[nH]c2ncnc(OCc3ccccc3)c12 shows pIC50 of 6 or higher.
NO

Hi, just wondering whether COC(=O)/C(C)=C/c1c[nH]c2ncnc(OCC(C)C)c12 shows pIC50 of 6 or higher.
YES

Hi, just wondering whether CC(C)COc1ncnc2[nH]cc(C/C=C/C(N)=O)c12 shows pIC50 of 6 or higher.
NO

Hi, just wondering whether CC(C)COc1ncnc2[nH]cc(/C=C/C(=O)NC[C@@H](C)O)c12 shows pIC50 of 6 or higher.
NO

Hi, just wondering whether CC(C)COc1ncnc2[nH]cc(C(=O)CCl)c12 shows pIC50 of 6 or higher.
NO

* * *

Test system: A549 cells
protocolDetails: IL-1β stimulated IL-6 Production in A549 cells
Format: cell-based
conditionsUsed: Homo sapiens, 50 μM compound, 1 ng/ml rhIL1β, 18 hrs, read-out: IL-6 Production % Control 50 μM
observedProperty: activity at 50 µM (%)
Give bare numbers, in %.

Consider the worked cases shown below.
compound	endpointValue
CC(C)COc1ncnc2[nH]cc(/C=C/C(=O)N(C)C)c12	0
CC(C)COc1ncnc2[nH]cc(/C=C/C(=O)NC[C@@H](C)O)c12	1
CC(C)COc1ncnc2[nH]cc(/C=C/C(=O)NC3CC3)c12	0
C=C(C#N)c1c[nH]c2ncnc(OCC(C)C)c12	75
NC(=O)/C=C/c1c[nH]c2ncnc(Oc3ccccc3)c12	0
CC(C)COc1ncnc2[nH]cc(/C=C/C(=O)NC[C@H](C)O)c12	1
CC(C)COc1ncnc2[nH]cc(C/C=C/C(N)=O)c12	0
CCC(C)Oc1ncnc2[nH]cc(/C=C/C(N)=O)c12 (centres unmarked)	0
NC(=O)/C=C/c1c[nH]c2ncnc(OCc3ccccc3)c12	0
CC(C)(O)COc1ncnc2[nH]cc(/C=C/C(N)=O)c12	0

Batch request: activity at 50 µM per item, same order as input.
1. CC(C)COc1ncnc2[nH]cc(/C=C/C(=O)NCC3CC3)c12
2. CC(C)COc1ncnc2[nH]cc(/C=C(\Cl)C(N)=O)c12
3. CC(C)COc1ncnc2[nH]cc(/C=C/C(N)=O)c12

1. 0
2. 0
3. 0

Batch request: activity at 50 µM per item, same order as input.
1. CC(C)(C)COc1ncnc2[nH]cc(/C=C/C(N)=O)c12
2. NC(=O)/C=C/c1c[nH]c2ncnc(OCc3cccc(F)c3)c12
3. CCC(=O)/C=C/c1c[nH]c2ncnc(OCC(C)C)c12
4. NC(=O)/C=C/c1c[nH]c2ncnc(OC3CCC(F)(F)CC3)c12
5. CC(C)Oc1ncnc2[nH]cc(/C=C/C(N)=O)c12
6. COC(=O)/C=C/c1c[nH]c2ncnc(OCC(C)C)c12
7. NC(=O)/C=C/c1c[nH]c2ncnc(OCC(F)(F)F)c12

1. 0
2. 1
3. 0
4. 0
5. 0
6. 0
7. 0

Batch request: activity at 50 µM per item, same order as input.
1. N#C/C=C/c1c[nH]c2ncnc(OCc3ccccc3)c12
2. CC(C)COc1ncnc2[nH]cc(/C=C/C(=O)O)c12
3. CCNC(=O)/C=C/c1c[nH]c2ncnc(OCC(C)C)c12
4. CC(C)COc1ncnc2[nH]cc(C#CC(N)=O)c12
5. CCCOc1ncnc2[nH]cc(/C=C/C(N)=O)c12
6. CC(C)(C)Oc1ncnc2[nH]cc(/C=C/C(N)=O)c12
7. COC(=O)/C(C)=C/c1c[nH]c2ncnc(OCC(C)C)c12
8. CNC(=O)/C=C/c1c[nH]c2ncnc(OCC(C)C)c12

15
1
0
0
0
1
0
0

Batch request: activity at 50 µM per item, same order as input.
1. CC(C)COc1ncnc2[nH]cc(C#N)c12
2. COC(=O)/C=C/c1c[nH]c2ncnc(OCc3ccccc3)c12
3. CC(C)COc1ncnc2[nH]cc(C(=O)CCl)c12

6
1
0

Bench note: what activity at 50 µM did CC(C)COc1ncnc2[nH]cc(C=C(F)C(N)=O)c12 (stereo in doubt) show?
14

* * *

For each record, write down the corresponding IC50.
System: A549 cells
protocolDetails: IL-1β stimulated IL-6 Production in A549 cells
Format: cell-based
conditionsUsed: Homo sapiens, 1 ng/ml rhIL1β, 18 hrs, read-out: IL-6 Production IC

Consider the worked cases shown below.
compound	measuredOn	observedProperty	endpointValue
CC(C)COc1ncnc2[nH]cc(C#CC(N)=O)c12 [Example 186]	A549 cells	IC50	850 nM
CC(C)(O)COc1ncnc2[nH]cc(/C=C/C(N)=O)c12 [Example 193]	A549 cells	IC50	1200 nM
CCC(=O)/C=C/c1c[nH]c2ncnc(OCC(C)C)c12 [Example 175]	A549 cells	IC50	990 nM

Batch request: IC50 per item, same order as input.
1. CC(C)(C)Oc1ncnc2[nH]cc(/C=C/C(N)=O)c12 [Example 195]
2. CC(C)COc1ncnc2[nH]cc(/C=C(\Cl)C(N)=O)c12 [Example 196]
3. NC(=O)/C=C/c1c[nH]c2ncnc(Oc3ccccc3)c12 [Example 190]

["920 nM", "750 nM", "1000 nM"]
